Numbers sourced from ChEMBL document CHEMBL4689842.

Examples of compounds with documented Population Fragmented Nuclei (%) follow.
# Test system: HEK-293T
# Assay Comment: Multiplex assay against HEK293T
# Type: toxicity, cell-based
# Condition: human, 12 h, 1 µM, compound concentration 1 uM, replicate 1
Measured Quantity: Population Fragmented Nuclei (%)

                                    compound  unit_symbol  result_number
 0  Cc1c[nH]c2nccc(Oc3c(F)cc(Nc4cc(Cl)nc(N)n4)cc3F)c12            %             15
 1  COc1ccccc1CN[C@H]1C2CCN(CC2)[C@H]1C(c1ccccc1)c1ccccc1            %             12
 2       CC(C)(C)NC[C@H](O)COc1nsnc1N1CCOCC1            %             10
 3  O=c1cc(N2CCOCC2)oc2c(-c3cccc4c3sc3ccccc34)cccc12            %              7
 4  C=CC(=O)Nc1cccc(Sc2nc(Nc3ccc(N4CCN(C)CC4)cc3)ncc2Cl)c1            %             28
 5  Cc1ccc2c(c1)c1c(n2CCc2ccc(C)nc2)CCN(C)C1 [LATREPIRDINE]            %              9
 6  COc1cc(Nc2nccc(-c3cnn4nc(OC)ccc34)n2)cc(C(F)(F)F)c1            %             16
 7  O=C(c1cc2c(cc1F)OC(c1ccc(F)cc1)(c1ccc(Cl)cc1Cl)O2)N1CCOCC1 (configuration not stated)            %             17
 8  CCCSc1nc(N[C@@H]2C[C@H]2c2ccc(F)c(F)c2)c2nnn([C@@H]3C[C@H](OCCO)[C@@H](O)[C@H]3O)c2n1            %             19
 9  COc1ccc(-c2ccc3ncc4c(c3c2)n(-c2ccc(N3CCNCC3)c(C(F)(F)F)c2)c(=O)n4C)cn1.O=C(O)/C=C\C(=O)O            %             22
10  CCc1nn(CCCN2CCN(c3cccc(Cl)c3)CC2)c(=O)n1CCOc1ccccc1.Cl [NEFAZODONE HYDROCHLORIDE]            %              7
11  CC(C)CC(=O)Nc1[nH]nc2c1CN(C(=O)C1CCN(C)CC1)C2(C)C            %             10
12  CN1CCN(Cc2ccc(Nc3ncc(Cl)c(Nc4ccccc4S(=O)(=O)N(C)C)n3)cc2)CC1            %             14
13  O=c1[nH]c2ccccc2n1C1CCN(Cc2ccc(-c3[nH]c4cc5ncnc5cc4nc3-c3ccccc3)cc2)CC1            %             13
14  Cl.O=C(O)c1cc(-c2ccc(C3CCNCC3)cc2)c2ccc(-c3ccc(C(F)(F)F)cc3)cc2c1            %             17
15  CC(C)OC(=O)N1CCC(Oc2ncnc3c2cnn3-c2ccc(S(C)(=O)=O)cc2F)CC1            %              8
16  CC(C)NC(=O)N1CC[C@H](NC2=Nc3cc(F)ccc3N(CC(F)F)c3ccc(Cl)cc32)C1            %             19
